test system: MOLT-4 leukemia; experiment: NCI tumour cell line growth inhibition, 48 h
VALUE KIND: TGI

Reference set (6 entries):
* COc1cc(C=O)cc(C=Nc2ccc(S(N)(=O)=O)cc2)c1O | 64.2 µM
* Cn1ccnc1C[N-]Cc1nccn1C.O=[N+]([O-])[O-].O=[N+]([O-])[O-].[Cu+2] | > 100 µM
* C#CCN(C)C(=O)N(CC#C)N=O | > 100 µM
* CCN1CCNc2c3cc(OC)ccc3nc3c([N+](=O)[O-])ccc1c23 | 1.34 µM
* C=CC(Br)(CBr)CCC(Br)C(C)C (stereo not given) | 5.21 µM
* COc1ccccc1N=C1SCCN1C(=S)Nc1ccc(S(=O)(=O)/N=C/N(C)C)cc1 | > 100 µM

Which measured TGI value corresponds to Cc1ccc2c(=O)c(-c3n[nH]c(=S)s3)c[nH]c2n1 ?
> 100 µM

Thanks! And O=C(O)CC(O)(C(=O)O)C(O)C(=O)O (stereo not given) ?
> 1000 µM

Thanks! And COc1c(N2CCN(Cn3c(O)c(N=NC(=O)c4ccncc4)c4cc(F)ccc43)C(C)C2)c(F)cc2c(=O)c(C(=O)O)cn(C3CC3)c12 (stereo not given) ?
> 50 µM

Thanks! And COc1cc(/C=N\O)nc(-c2ccccn2)c1 ?
> 100 µM

Thanks! And CC1=C(C(=O)Nc2ccccc2)C(c2ccc(C(C)C)cc2)C(C(=O)Nc2ccccc2)=C(C)N1 ?
57.5 µM

Thanks! And COP(C)(=O)C(Cc1c[nH]c2ccccc12)NC(=O)OCc1ccccc1 (stereo not given) ?
> 100 µM

Thanks! And CO[C@H](C(=O)O)[C@@H]1Cc2cc3cc(OC4CC(OC5CC(O)C(O)C(C)O5)C(O)C(C)O4)c(C)c(O)c3c(O)c2C(=O)[C@H]1OC1CC(OC2CC(OC3CC(C)(O)C(O)C(C)O3)C(O)C(C)O2)C(O)C(C)O1 (stereo not given in full) ?
6.41 µM

Thanks! And c1ccc(CCn2cncn2)cc1 ?
> 100 µM

----------
The entries below are paired with their reported TGI.
system: LOX IMVI melanoma; assay: NCI tumour cell line growth inhibition, 48 h
Respond with the bare value in µM.

• CCCCCCCCCCCCCCCCP(=O)([O-])OCC[N+](C)(C)C = 29
• COc1ccc2nc3cccc(C(=O)NCCN(C)C)c3nc2c1 = 2.45

Please find the next compound below.
Which measured TGI value corresponds to CCOC(=O)c1ccccc1-c1c2ccc(=[N+](C)C)cc-2oc2cc(N(C)C)ccc12 ?
4.41

----------
system: HCT-116 colon; test: NCI tumour cell line growth inhibition, 48 h; in the data active = GI50 below about 0.43 µM; inactive = the rest
Hi there, use one of these labels in your reply, thanks! active, inactive

Solved cases below.
* COc1ccc(-c2c(N)n[nH]c2-c2cc(OC)c(OC)c(OC)c2)cc1 | active
* C1CC[N-]CC1.CC(=N\O)/C(C)=N/O.CC(=N\O)/C(C)=N/O.[CH2-]CCN1CCOCC1.[Co+2] | inactive
* Nc1c(C(=O)Nc2cccc(Br)c2)sc2nc3c(cc12)C(O)CCC3 (stereo not given) | inactive
* Cc1cc(S(=O)(=O)Nc2nc3cc(Cl)ccc3o2)c(SCc2ccccc2)cc1Cl | inactive

Query molecule follows.
Just curious, what result did COc1ccc2[nH]c(O)c(/C=c3/cc4c(c(-c5ccc(F)cc5)n3)=Nc3ccccc3-4)c2c1 get here?
inactive

----------
test system: HS 578T breast; test: NCI tumour cell line growth inhibition, 48 h; in the data active = GI50 below about 0.43 µM; inactive = the rest
Hi there, use one of these labels in your reply, thanks! active, inactive

* CO[C@H](C(=O)O)[C@@H]1Cc2cc3cc(OC4CC(OC5CC(O)C(O)C(C)O5)C(O)C(C)O4)c(C)c(O)c3c(O)c2C(=O)[C@H]1OC1CC(OC2CC(OC3CC(C)(O)C(O)C(C)O3)C(O)C(C)O2)C(O)C(C)O1 (some centres undefined) | active
* C#CCN(Cc1nc2cc(C(F)(F)F)ccc2nc1-c1ccccc1)c1ccc(F)c(F)c1 | inactive
* CCOC(=O)Cc1csc(NC(=O)COC(=O)c2ccc(OC)cc2)n1 | inactive

Just curious, what result did CC(C)(C)C(=O)OCc1nc2cc3c(cc2c(=O)[nH]1)CCC3=O get here?
inactive

----------
test system: HCT-15 colon; assay: NCI tumour cell line growth inhibition, 48 h
The entries below are paired with their reported GI50.

- COc1ccc(/C=N/N=C(\[O-])c2ccncc2)cc1F.COc1ccc(/C=N\N=C(/[O-])c2ccncc2)cc1F.[Cu+2]: 52.6 µM
- CN1CCN(CCOc2ccc(-c3cnc4c(-c5ccc(F)cc5)cnn4c3)cc2)CC1: 1.32 µM
- COc1ccc(NC(=O)/C=C(C)/C=C/C=C(C)\C=C\C2=C(C)CCCC2(C)C)cc1: > 100 µM
- Cc1nnc(-c2ccc(-c3nc4ccccc4o3)cc2)o1: 70.8 µM

Reported GI50 for HCT-15 colon, given CCOC(=O)/C(C#N)=C/Nc1ccc(-c2nc3ccccc3[nH]2)cc1 ?
34.1 µM

----------
system: KM12 colon; test: NCI tumour cell line growth inhibition, 48 h
VALUE KIND: GI50

Reference set (3 entries):
* Cn1ccnc1C[N-]Cc1nccn1C.O=[N+]([O-])[O-].O=[N+]([O-])[O-].[Cu+2] | > 100 µM
* COc1cccc(C2=C(c3cn(C)c4cccc(OC)c34)C(=O)NC2=O)c1 | 6.01 µM
* O=C(NCCCCOCC#Cc1ccccc1C#CCS(=O)(=O)c1ccccc1)c1cc2ccccc2[nH]1 | 17.5 µM

Which measured GI50 value corresponds to CCCCOc1ccc(/C=N/Nc2cc(C)nc3ccc(Cl)cc23)cc1 ?
1.93 µM

Thanks! And CN1CCN(CCOc2ccc(-c3cnc4c(-c5ccc(F)cc5)cnn4c3)cc2)CC1 ?
1.06 µM

----------
tested on: CCRF-CEM leukemia; assay: NCI tumour cell line growth inhibition, 48 h
VALUE KIND: TGI

Reference set (4 entries):
- CCOC(=O)Cc1csc(NC(=O)COC(=O)c2ccc(OC)cc2)n1: 31.5 µM
- Nc1c(-c2nc3ccccc3[nH]2)sc(=S)n1-c1ccc(Cl)cc1: > 100 µM
- Oc1c(CN2CCOCC2)cc(COCc2ccccc2)c2cccnc12: > 100 µM
- O=C1c2cc([N+](=O)[O-])sc2C(=O)c2ccsc21: 0.227 µM

Please find the next molecule below.
Which measured TGI value corresponds to CC1=CC(=O)/C(=C/n2c(=S)[nH]c3ccccc32)C(=O)O1 ?
> 100 µM

----------
test system: SK-MEL-28 melanoma; assay: NCI tumour cell line growth inhibition, 48 h
VALUE KIND: TGI

Reference set (3 entries):
• COC(=O)[C@]12CC[C@@H](C)[C@H](C)[C@@H]1C1=CC[C@@H]3[C@@]4(C)CC(=O)[C@H](OC(=O)c5ccco5)[C@@]5(C)COC(=C45)C[C@@]3(C)[C@]1(C)CC2 = > 100 µM
• Cc1sc2nc3n(c(=O)c2c1C)N=C(c1ccc([N+](=O)[O-])cc1)CS3 = > 100 µM
• O=[N+]([O-])c1cc(Cl)ccc1S(=O)(=O)N1CCCc2cc(Cl)ccc21 = > 100 µM

Which measured TGI value corresponds to CN1C(=O)N(C)C2(CCN(CCCCCCF)CC2)C1=O ?
> 100 µM

Thanks! And COc1cccc(C2=C(c3cn(C)c4cccc(OC)c34)C(=O)NC2=O)c1 ?
> 25 µM

----------
system: IGROV1 ovarian; assay: NCI tumour cell line growth inhibition, 48 h
The entries below are paired with their reported TGI.
Respond with the bare value in µM.

Reference set (3 entries):
- Cc1cc(S(=O)(=O)Nc2nc3cc(Cl)ccc3o2)c(SCc2ccccc2)cc1Cl: 44.3
- CC1(C)[C@@H](OC(N)=O)C=C[C@]2(C=O)[C@H]3CC[C@]4(C)[C@@H](c5ccc(=O)oc5)[C@@H](Cl)C[C@]4(O)C3=CC[C@@H]12: 0.0244
- CCN(CC)CCC(=O)c1ccc(Oc2ccc(F)cc2)cc1: 36

Please find the next compound below.
Which measured TGI value corresponds to O=P1(c2ccccc2)C2=CCC=CC2C(c2ccccc2)N1Cc1ccccc1 (centres undefined) ?
32.9

----------
tested on: SW-620 colon; experiment: NCI tumour cell line growth inhibition, 48 h
The entries below are paired with their reported GI50.

Reference set (5 entries):
* CN(C)CCNc1nc2ccccc2c2c(=O)c3ccccc3sc12 | 1.39 µM
* O=C(Nc1cc(-c2cccnc2)nc(NCCCN2CCOCC2)n1)c1cc(Br)cc(C(F)(F)F)c1 | 2.25 µM
* O=C(CC(=O)c1ccccc1)c1ccccc1 | 13.2 µM
* C1C[OH+]CC[OH+]CC[OH+]CC[OH+]CC[OH+]CC[OH+]1.[Cl-].[Nb+5] | > 100 µM
* COc1ccc(/C=N/N=C(\[O-])c2ccncc2)cc1F.COc1ccc(/C=N\N=C(/[O-])c2ccncc2)cc1F.[Cu+2] | 35.7 µM

Please find the next compound below.
Which measured GI50 value corresponds to Cc1sc2ncn(Cc3ccc(Cl)c(Cl)c3)c(=O)c2c1C ?
59.8 µM
